- MEASURED_TARGET: thromboxane synthetase enzyme (Rattus norvegicus)
- Construct: The platelets were isolated by centrifuging the PRP for 10 minutes at 1060xg; endogenous in cells; host or cells: washed platelets from arterial blood of Okamoto-Aoki spontaneously hypertensive rats (Taconic Farms, Germantown, NY)
- TEST_NAME: Thromboxane Synthetase Enzyme Inhibition (TXB2 formation by washed SHR platelets, RIA)
- Format: cell-based, Okamoto-Aoki spontaneously hypertensive rats (SHR)
- CONDITION_LABEL: 10 min; Dose 10^-4 (unit inferred); SHR platelet suspension, 10 minutes at 37° C.
METRIC: inhibition at 100 µM (%)

Before answering, review these 5 worked examples.
O=C(NCCCn1ccnc1)Nc1ccc(Cl)c(Cl)c1 ... 95
O=C(NCCCn1ccnc1)Nc1ccccc1 ... 97
O=C(NCCCn1ccnc1)Nc1ccccc1Br ... 95
COc1ccc(NC(=O)NCCCn2cncn2)cc1 ... 71
O=C(NCCCn1cncn1)Nc1ccc(Cl)cc1 ... 93

I. O=C(NCCCn1ccnc1)Nc1cccc(C(F)(F)F)c1
II. O=C(NCCCn1cncn1)Nc1ccccc1F
Request: Lowest inhibition at 100 µM? choose I or II Refer to your chosen item by its label in the answer.
Result: II

* * *

- MEASURED_TARGET: thromboxane synthetase enzyme (Rattus norvegicus)
- Construct: The platelets were isolated by centrifuging the PRP for 10 minutes at 1060xg; endogenous in cells; host or cells: washed platelets from arterial blood of Okamoto-Aoki spontaneously hypertensive rats (Taconic Farms, Germantown, NY)
- Sequence (P49430 1-533): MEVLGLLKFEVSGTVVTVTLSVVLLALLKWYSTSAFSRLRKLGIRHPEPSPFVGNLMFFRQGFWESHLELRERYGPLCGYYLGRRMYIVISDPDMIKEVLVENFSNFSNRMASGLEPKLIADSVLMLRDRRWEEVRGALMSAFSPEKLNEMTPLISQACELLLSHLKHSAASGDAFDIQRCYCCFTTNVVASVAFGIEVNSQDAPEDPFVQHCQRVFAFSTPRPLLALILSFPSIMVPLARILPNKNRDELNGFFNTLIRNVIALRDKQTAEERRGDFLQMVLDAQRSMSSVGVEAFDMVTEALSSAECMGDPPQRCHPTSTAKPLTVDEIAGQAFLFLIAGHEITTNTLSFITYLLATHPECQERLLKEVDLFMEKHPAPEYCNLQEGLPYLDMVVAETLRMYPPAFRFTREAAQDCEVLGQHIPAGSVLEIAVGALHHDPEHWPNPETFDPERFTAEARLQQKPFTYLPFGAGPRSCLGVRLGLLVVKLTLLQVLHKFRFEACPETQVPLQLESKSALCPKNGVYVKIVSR
- TEST_NAME: Thromboxane Synthetase Enzyme Inhibition (TXB2 formation by washed SHR platelets, RIA)
- Format: cell-based, Okamoto-Aoki spontaneously hypertensive rats (SHR)
- CONDITION_LABEL: 10 min; Dose 10^-4 (unit inferred); SHR platelet suspension, 10 minutes at 37° C.
METRIC: inhibition at 100 µM (%)

O=C(NCCCn1ccnc1)Nc1ccccc1F ... 99
O=C(NCCCCCn1ccnc1)Nc1ccc(Cl)cc1 ... 92
O=C(NCCCn1cncn1)Nc1ccc(F)cc1 ... 97
O=C(NCCCn1ccnc1)Nc1ccc(Br)cc1 ... 95
O=C(NCCCCn1ccnc1)Nc1ccc(Cl)cc1 ... 95
O=C(NCCCn1ccnc1)Nc1ccc(F)cc1 ... 100
Cc1cn(CCCCNC(=O)Nc2ccc(Cl)cc2)cn1 ... 100
Cc1cn(CCCNC(=O)Nc2ccc(Cl)cc2)cn1 ... 92
O=C(NCCCn1cncn1)Nc1ccccc1Br ... 85
Cc1ccc(NC(=O)NCCCn2ccnc2)cc1 ... 98
O=C(NCCCn1ccnc1)Nc1cccc(Cl)c1 ... 100
O=C(NCCCn1cncn1)Nc1cccc(C(F)(F)F)c1 ... 99
O=C(NCCCn1ccnc1)Nc1ccc(Cl)cc1 ... 92
COc1ccc(NC(=O)NCCCn2ccnc2)cc1 ... 94
O=C(NCCCn1cncn1)Nc1ccccc1Cl ... 86
O=C(NCCCn1cncn1)Nc1cccc(Cl)c1 ... 99
O=C(NCCCn1ccnc1)Nc1ccccc1Cl ... 94
O=C(NCCCn1cncn1)Nc1ccc(Br)cc1 ... 86
O=C(NCCCn1ccnc1-c1ccccc1)Nc1ccc(Cl)cc1 ... 86
